B1: GLTSCR2 (parent)
chain: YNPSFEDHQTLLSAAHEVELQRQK

Variants of: B1
Test: protein stability index of a GFP-peptide fusion (GPS, HEK-293T) (PSI 1-6); higher = more stable;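 note: lentivirally expressed fusions sorted by FACS into six bins by GFP to DsRed ratio, PSI derived from sequencing read proportions per bin multiplied by bin number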
Details: c terminus: a fixed tail appended
Where protein stability index equals or exceeds 4, the correct label is yes; where it does not, the label is no.

Given the entry `Q21G` , answer whether its protein stability index meets or surpasses 4.
no

Given the entry `Y1Q` , answer whether its protein stability index meets or surpasses 4.
yes

Given the entry `E19P` , answer whether its protein stability index meets or surpasses 4.
no

Given the entry `F5D` , answer whether its protein stability index meets or surpasses 4.
yes

Given the entry `S4K` , answer whether its protein stability index meets or surpasses 4.
yes

Given the entry `T10Q` , answer whether its protein stability index meets or surpasses 4.
no

Given the entry `Q21L` , answer whether its protein stability index meets or surpasses 4.
no

Given the entry `F5Q` , answer whether its protein stability index meets or surpasses 4.
yes

Given the entry `E19R` , answer whether its protein stability index meets or surpasses 4.
no

Given the entry `V18Q` , answer whether its protein stability index meets or surpasses 4.
no
